# METHOD DESCRIPTION: recombinant barcode read abundance after kanamycin selection (control-corrected) (log10(CPM+1)); higher = more efficient recombination; sequences stand for … in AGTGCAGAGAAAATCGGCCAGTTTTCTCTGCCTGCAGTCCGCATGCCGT…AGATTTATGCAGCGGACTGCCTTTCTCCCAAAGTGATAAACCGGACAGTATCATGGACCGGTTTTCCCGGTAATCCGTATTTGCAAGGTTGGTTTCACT; site = the 11-nt target
If the reported recombinant barcode read abundance (log10) equals or exceeds 0.2, assign t. If not, assign f.

{"SEQUENCE STRING": "GTCGGGACTTGGGTTCTAACCTGTTGCCT (site GTCGGAACTAG)", "CAT": "t"}
{"SEQUENCE STRING": "ACCACGCCTTGGGTTCTAACCTGTTGCCT (site ACCACGCCTAG)", "CAT": "t"}
{"SEQUENCE STRING": "CATAGCTCTTGGGTTCTAACCTGTTGCCT (site CATAGCTCTAG)", "CAT": "t"}
{"SEQUENCE STRING": "AGGTGTCCTTGGGTTCTAACCTGTTGCGA (site AGGTGTCCTTC)", "CAT": "t"}

Task: For this sequence, is measured recombinant barcode read abundance (log10) 0.2 or higher? GAAGTAACTTGGGTTCTAACCTGTTGCCT (site GACGTAACTAG)
Result: f

Task: Reported recombinant barcode read abundance (log10) reaches at least 0.2 for GCCATGTCTTGGGTTCTAACCTGTTGCTA (site ACCTTGTCTTA) ?
Result: f

Task: Hi team, for CTAGACTCTTGGGTTCTAACCTGTTGCAA (site CTAGACTCTCT) , is the recorded recombinant barcode read abundance (log10) at or above 0.2?
Result: t

* * *

# METHOD DESCRIPTION: recombinant UMI read abundance after kanamycin selection (control-corrected) (log10(CPM+1)); higher = more efficient recombination; extreme values may be limits of the assay; sequences stand for … in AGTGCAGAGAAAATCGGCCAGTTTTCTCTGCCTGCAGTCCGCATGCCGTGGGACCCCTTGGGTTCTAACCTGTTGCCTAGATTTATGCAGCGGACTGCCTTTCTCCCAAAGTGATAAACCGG…AGGTTGGTTTCACT; site = the 11-nt donor
Binary classification by recombinant UMI read abundance (log10), with 1 as an inclusive lower bound for satisfied; all other cases are not satisfied.

Example entries and their recorded answers appear below.
{"SEQUENCE STRING": "GCTGAATCATGGACCGGTTTTCCCGGTAATCCGTATTTGCA (site GCTGAATCTTG)", "CAT": "satisfied"}
{"SEQUENCE STRING": "CAAGCAGCATGGACCGGTTTTCCCGGTAATCCGTATTTGAT (site CAAGCAGCTAG)", "CAT": "not satisfied"}
{"SEQUENCE STRING": "AGCCTAGCATGGACCGGTTTTCCCGGTAATCCGTATTTGGT (site AGCCTAGCTAT)", "CAT": "not satisfied"}
{"SEQUENCE STRING": "ATCTCTACATGGACCGGTTTTCCCGGTAATCCGTATTTGAC (site ATCTGTACTGT)", "CAT": "not satisfied"}
{"SEQUENCE STRING": "GGTCATCCATGGACCGGTTTTCCCGGTAATCCGTATTTGAA (site GGTCATCCTTT)", "CAT": "not satisfied"}

Task: Decide: is the reported value of recombinant UMI read abundance (log10) for ACTAGAACATGGACCGGTTTTCCCGGTAATCCGTATTTGGG (site ACTAGAACTCT) equal to or greater than 1?
Result: not satisfied

Task: Check the entry TCCATCGCATGGACCGGTTTTCCCGGTAATCCGTATTTGCG (site TCCAGCGCTCG) : does recombinant UMI read abundance (log10) equal or exceed 1?
Result: not satisfied

Task: Hello, I need to know if GCTTGCCCATGGACCGGTTTTCCCGGTAATCCGTATTTGTT (site GCTTGCCCTAC) has measured recombinant UMI read abundance (log10) not below 1. Thanks!
Result: not satisfied

* * *

# METHOD DESCRIPTION: recombinant barcode read abundance after kanamycin selection (control-corrected) (log10(CPM+1)); higher = more efficient recombination; sequences stand for … in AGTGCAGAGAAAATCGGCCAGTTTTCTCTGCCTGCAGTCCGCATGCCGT…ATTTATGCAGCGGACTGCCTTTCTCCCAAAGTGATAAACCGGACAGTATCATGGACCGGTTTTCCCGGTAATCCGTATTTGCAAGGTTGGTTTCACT; site = the 11-nt target
Form field: recombinant barcode read abundance (log10) (one value per entry).
Reply: number alone, nothing else.

{"SEQUENCE STRING": "AAACAGTTATGGGTTCTAACCTGTTGCCTTA [AAACAGTCTAG_LTGcore_TA_RTGcore_TA] (site AAACAGTCTAG) (LTG core: TA, RTG core: TA)", "MEAS VALUE": 0.0835}
{"SEQUENCE STRING": "TCTACCCGCTGGGTTCTAACCTGTTGCTGAG [TCTACCCCTCA_LTGcore_GC_RTGcore_CT] (site TCTACCCCTCA) (LTG core: GC, RTG core: CT)", "MEAS VALUE": 0.045}

Next sequence, recombinant barcode read abundance (log10) to be filled in.
Task: Consider the sequence GAGTCCTGGTGGGTTCTAACCTGTTGCCTCC [GAGTCCTCTAG_LTGcore_GG_RTGcore_GG] (site GAGTCCTCTAG) (LTG core: GG, RTG core: GG) . State its measured recombinant barcode read abundance (log10).
Result: 0.0289

* * *

# METHOD DESCRIPTION: recombinant barcode read abundance after kanamycin selection (control-corrected) (log10(CPM+1)); higher = more efficient recombination; sequences stand for … in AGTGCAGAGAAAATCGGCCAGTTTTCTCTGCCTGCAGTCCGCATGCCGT…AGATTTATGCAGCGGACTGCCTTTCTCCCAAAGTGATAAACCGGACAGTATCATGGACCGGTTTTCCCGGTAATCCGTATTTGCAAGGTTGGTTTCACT; site = the 11-nt target
Categorize each record by its recombinant barcode read abundance (log10) using L: < 0.08; M: ≥ 0.08 and < 0.2; H: ≥ 0.2

Example cases with answers are listed next.
{"SEQUENCE STRING": "ATAATAGCTTGGGTTCTAACCTGTTGCCT (site ATAAGAGCTAG)", "CAT": "L"}
{"SEQUENCE STRING": "CGGGCGTCTTGGGTTCTAACCTGTTGCTA (site CGGGCGTCTTA)", "CAT": "H"}
{"SEQUENCE STRING": "GGTACGCCTTGGGTTCTAACCTGTTGCAT (site GGTACGACTCT)", "CAT": "M"}
{"SEQUENCE STRING": "GGATGGACTTGGGTTCTAACCTGTTGCTT (site GGATAGCCTAA)", "CAT": "L"}
{"SEQUENCE STRING": "CCGTCTACTTGGGTTCTAACCTGTTGCTC (site CCGTCTACTGA)", "CAT": "L"}
{"SEQUENCE STRING": "TAAAGAGCTTGGGTTCTAACCTGTTGCGG (site TAGAGAGCTCC)", "CAT": "M"}

Task: Band for the recorded recombinant barcode read abundance (log10) of AGCTGTCCTTGGGTTCTAACCTGTTGCAG (site AGCTGTCCTCT) ?
Result: H

Task: For TCACTCTCTTGGGTTCTAACCTGTTGCCT (site TAACTCTCTAG) , which recombinant barcode read abundance (log10) bin applies?
Result: M

Task: Into which bin does this sequence go? ATGAAGCCTTGGGTTCTAACCTGTTGCTT (site ATCAAGCCTAA)
Result: L

Task: # classify by recombinant barcode read abundance (log10) band: AACATTCCTTGGGTTCTAACCTGTTGCCT (site CACATTCCTAG)
Result: L

Task: Lab note: which band did CTGTTCCCTTGGGTTCTAACCTGTTGCGG (site CTGTTCCCTCC) land in?
Result: H

Task: Band for the recorded recombinant barcode read abundance (log10) of ATCGAGTCTTGGGTTCTAACCTGTTGCCT (site AACGAGTCTAG) ?
Result: M

Task: Which class does GAGGCGGCTTGGGTTCTAACCTGTTGCTT (site GAGCCGGCTAA) fall in?
Result: M

Task: Bin? GGGGATCCTTGGGTTCTAACCTGTTGCCT (site GGGGATCCTAG)
Result: H

Task: For the record TCCGCTGCTTGGGTTCTAACCTGTTGCCT (site TCCGCTGCTAG) , report the class its recombinant barcode read abundance (log10) corresponds to.
Result: H

Task: Class? Entry: CTGAGCCCTTGGGTTCTAACCTGTTGCAT (site CGGAGCCCTCT)
Result: M

* * *

# METHOD DESCRIPTION: recombinant UMI read abundance after kanamycin selection (control-corrected) (log10(CPM+1)); higher = more efficient recombination; extreme values may be limits of the assay; sequences stand for … in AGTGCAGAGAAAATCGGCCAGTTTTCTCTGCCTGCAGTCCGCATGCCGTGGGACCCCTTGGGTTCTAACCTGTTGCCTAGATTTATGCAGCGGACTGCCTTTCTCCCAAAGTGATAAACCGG…AGGTTGGTTTCACT; site = the 11-nt donor
Hi, to clarify the labels: Condition met covers recombinant UMI read abundance (log10) from 0.5 upward, Condition not met covers anything below 0.5.

Examples from the recorded data:
{"SEQUENCE STRING": "AGTTATGCATGGACCGGTTTTCCCGGTAATCCGTATTTGGA (site AGTTATGCTTC)", "CAT": "Condition met"}
{"SEQUENCE STRING": "TATAATACATGGACCGGTTTTCCCGGTAATCCGTATTTGCA (site TAAAATACTTG)", "CAT": "Condition met"}
{"SEQUENCE STRING": "ACTAGAACATGGACCGGTTTTCCCGGTAATCCGTATTTGTG (site ACTAGAACTCA)", "CAT": "Condition met"}
{"SEQUENCE STRING": "ACAGTAACATGGACCGGTTTTCCCGGTAATCCGTATTTGCA (site ACAGTACCTTG)", "CAT": "Condition not met"}
{"SEQUENCE STRING": "TAGGAACCATGGACCGGTTTTCCCGGTAATCCGTATTTGCG (site TAGGAACCTCG)", "CAT": "Condition not met"}

Task: Does recombinant UMI read abundance (log10) meet or surpass 0.5 for TGATACTCATGGACCGGTTTTCCCGGTAATCCGTATTTGCA (site TGATACTCTTG) ?
Result: Condition met

Task: Form field: recombinant UMI read abundance (log10) at least 0.5? Entry: AATGTGTCATGGACCGGTTTTCCCGGTAATCCGTATTTGCC (site AATGTGTCTGG)
Result: Condition met

Task: Does CCCGGACCATGGACCGGTTTTCCCGGTAATCCGTATTTGCA (site CCCGGACCTTG) have a reported recombinant UMI read abundance (log10) of at least 0.5?
Result: Condition not met

Task: Confirm if recombinant UMI read abundance (log10) reported for the sequence GACAAACCATGGACCGGTTTTCCCGGTAATCCGTATTTGCT (site GACAAACCTAG) is 0.5 or above.
Result: Condition not met
